Origin of values: ChEMBL document CHEMBL5370608

Assay: AUC (0 to infinity) in C57/BI mouse at 1 mg/kg, po measured upto 24 hrs by LC-MS/MS analysis
Type: ADME, organism-based
Set-up: time < 24 hrs, dose 1 mg/kg, route po
Settings: in vivo
property_label: AUC(0-inf) (µM·h)
Report only the number, with the unit µM·h understood.

Param item = FC(F)c1nnc(-c2ccc(Cn3nnc(-c4ccccn4)n3)nc2)o1 ; retrieve measured AUC(0-inf). 21

---

Molecular target: Histone deacetylase 5 (Homo sapiens)
Sequence (Q9UQL6 whole entry): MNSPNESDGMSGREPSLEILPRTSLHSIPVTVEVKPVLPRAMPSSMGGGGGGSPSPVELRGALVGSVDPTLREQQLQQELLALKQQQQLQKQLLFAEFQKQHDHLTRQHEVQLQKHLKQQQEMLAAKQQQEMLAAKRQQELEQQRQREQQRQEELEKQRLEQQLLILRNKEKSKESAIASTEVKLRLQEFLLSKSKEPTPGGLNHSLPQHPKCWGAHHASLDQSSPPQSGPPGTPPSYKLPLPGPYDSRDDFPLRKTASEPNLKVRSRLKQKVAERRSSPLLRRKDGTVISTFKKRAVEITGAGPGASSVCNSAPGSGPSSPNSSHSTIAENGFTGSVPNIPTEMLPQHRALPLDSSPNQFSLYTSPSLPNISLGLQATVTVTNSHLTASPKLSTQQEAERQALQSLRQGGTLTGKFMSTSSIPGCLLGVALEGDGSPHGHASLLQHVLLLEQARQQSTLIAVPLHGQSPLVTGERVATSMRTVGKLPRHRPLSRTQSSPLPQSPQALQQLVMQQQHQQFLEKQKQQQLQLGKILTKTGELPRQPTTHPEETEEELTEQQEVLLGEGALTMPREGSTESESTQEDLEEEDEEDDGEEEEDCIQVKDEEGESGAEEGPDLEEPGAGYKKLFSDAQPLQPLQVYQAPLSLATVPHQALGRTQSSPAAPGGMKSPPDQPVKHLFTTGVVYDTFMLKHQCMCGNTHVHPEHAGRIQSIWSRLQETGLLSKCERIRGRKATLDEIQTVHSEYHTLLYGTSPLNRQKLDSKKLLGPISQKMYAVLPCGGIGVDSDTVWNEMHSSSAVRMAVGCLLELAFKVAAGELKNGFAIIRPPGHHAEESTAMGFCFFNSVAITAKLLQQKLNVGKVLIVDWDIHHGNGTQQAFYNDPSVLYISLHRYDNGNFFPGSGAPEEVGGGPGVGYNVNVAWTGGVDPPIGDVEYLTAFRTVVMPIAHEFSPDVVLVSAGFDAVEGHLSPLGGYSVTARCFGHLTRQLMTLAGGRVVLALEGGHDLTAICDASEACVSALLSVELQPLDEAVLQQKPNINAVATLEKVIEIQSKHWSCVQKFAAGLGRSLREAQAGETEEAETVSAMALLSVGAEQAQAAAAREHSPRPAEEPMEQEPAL
Experiment: Inhibition of human recombinant HDAC5 incubated for 30 mins by fluorimetry analysis
property_label: IC50

Look up IC50 with Histone deacetylase 5 (Homo sapiens) for this compound: FC(F)c1nnc(-c2ccc(Cn3nnc(-c4ccccn4)n3)nc2)o1 > 100 µM

Follow-up item: CS(=O)(=O)NCC(Nc1ncc(-c2nnc(C(F)F)o2)cn1)c1ccc(OC(F)(F)F)cc1 (centres undefined) > 100 µM

Follow-up item: O=C(NO)c1cnc(NC2(c3ccccc3)CCC(F)(F)CC2)nc1 3.7 µM

Follow-up item: COc1ccccc1-c1nnn(Cc2ccc(-c3nnc(C(F)F)o3)cn2)n1 > 100 µM

---

Assay: Half life in C57/BI mouse at 0.5 mg/kg, iv measured upto 24 hrs by LC-MS/MS analysis
Assay type: ADME, organism-based
Settings: in vivo
property_label: half-life (h)
Report only the number, with the unit h understood.

Param item = FC(F)c1nnc(-c2ccc(Cn3nnc(-c4ccccn4)n3)nc2)o1 ; retrieve measured half-life. 4.7

---

Target: Protein deacetylase HDAC6 (Homo sapiens)
Sequence (Q9UBN7 whole entry): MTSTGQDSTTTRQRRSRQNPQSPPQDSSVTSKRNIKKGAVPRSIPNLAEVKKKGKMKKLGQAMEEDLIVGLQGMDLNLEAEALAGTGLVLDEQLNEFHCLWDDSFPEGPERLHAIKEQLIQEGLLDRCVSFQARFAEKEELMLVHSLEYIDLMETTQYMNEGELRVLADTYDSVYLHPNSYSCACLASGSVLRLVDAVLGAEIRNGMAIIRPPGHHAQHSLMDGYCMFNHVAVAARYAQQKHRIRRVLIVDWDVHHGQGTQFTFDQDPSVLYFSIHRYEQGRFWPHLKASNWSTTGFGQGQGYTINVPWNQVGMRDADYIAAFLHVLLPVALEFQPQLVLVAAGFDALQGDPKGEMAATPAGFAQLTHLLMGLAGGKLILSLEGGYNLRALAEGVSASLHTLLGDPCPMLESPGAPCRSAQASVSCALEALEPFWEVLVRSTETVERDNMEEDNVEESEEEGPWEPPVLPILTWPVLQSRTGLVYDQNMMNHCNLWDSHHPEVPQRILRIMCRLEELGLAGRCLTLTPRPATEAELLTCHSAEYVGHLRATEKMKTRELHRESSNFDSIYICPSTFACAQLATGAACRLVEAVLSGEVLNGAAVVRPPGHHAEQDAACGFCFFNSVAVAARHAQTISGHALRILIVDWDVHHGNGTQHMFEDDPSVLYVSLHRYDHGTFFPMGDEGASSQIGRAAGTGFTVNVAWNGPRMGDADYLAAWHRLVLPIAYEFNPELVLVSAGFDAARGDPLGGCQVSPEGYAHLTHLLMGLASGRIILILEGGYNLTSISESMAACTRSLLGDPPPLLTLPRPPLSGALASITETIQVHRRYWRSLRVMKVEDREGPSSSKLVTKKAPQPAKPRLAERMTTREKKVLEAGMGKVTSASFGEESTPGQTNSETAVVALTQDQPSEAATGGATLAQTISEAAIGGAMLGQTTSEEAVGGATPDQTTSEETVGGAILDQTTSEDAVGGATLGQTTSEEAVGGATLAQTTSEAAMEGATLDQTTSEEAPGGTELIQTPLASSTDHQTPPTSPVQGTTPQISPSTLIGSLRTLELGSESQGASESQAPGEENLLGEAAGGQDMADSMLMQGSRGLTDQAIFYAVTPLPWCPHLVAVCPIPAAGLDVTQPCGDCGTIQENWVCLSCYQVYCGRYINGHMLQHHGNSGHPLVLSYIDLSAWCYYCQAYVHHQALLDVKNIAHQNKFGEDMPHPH
Experiment: Inhibition of full length TEV-cleavable N-terminal His6-tagged human recombinant HDAC6 using Ac-RGK (Ac)-AMC as substrate preincubated for 20 hrs followed by substrate addition and measured after 3 hrs by microplate reader analysis
Provide the recorded pIC50 for the entries that follow.
API: returns pIC50 as number; meaning -log10 of concentration in mol/L.

Look up pIC50 with Protein deacetylase HDAC6 (Homo sapiens) for this compound: COc1cccc(CNC(=O)c2csc(-c3nnn(Cc4ccc(-c5nnc(C(F)(F)F)o5)cc4)n3)c2)c1 7.90

Follow-up item: FC(F)c1nnc(-c2ccc(Cn3nnnc3-c3ccccn3)cc2)o1 7.50

Follow-up item: FC(F)c1nnc(-c2ccc(Cn3nnc(-c4ccccc4Cl)n3)nc2)o1 9.20

Follow-up item: FC(F)c1nnc(-c2ccc(Cn3nnc(-c4cccc(Cl)c4)n3)nc2)o1 8.80

Follow-up item: COc1cccc(CNC(=O)c2csc(-c3nnn(Cc4ccc(-c5nnc(C(F)F)o5)cc4)n3)c2)c1 8.80

Follow-up item: CS(=O)(=O)NCC(Nc1ncc(-c2nnc(C(F)F)o2)cn1)c1ccc(OC(F)(F)F)cc1 (stereo unspecified) 8.80

Follow-up item: CNC(=O)c1csc(-c2nnn(Cc3ccc(-c4nnc(C(F)F)o4)cc3)n2)c1 9.00

Follow-up item: FC(F)c1nnc(-c2ccc(Cn3nnc(-c4ccccn4)n3)cc2)o1 8.70

Follow-up item: FC(F)c1nnc(-c2ccc(Cn3nnc(-c4ccccc4)n3)nc2)o1 9.10

Follow-up item: FC(F)c1nnc(-c2cnc(Cn3nnc(-c4ccccn4)n3)nc2)o1 7.80

Follow-up item: COc1cccc(-c2nnn(Cc3ccc(-c4nnc(C(F)F)o4)cn3)n2)c1 8.70

Follow-up item: FC(F)c1nnc(-c2ccc(Cn3nnc(-c4ccccn4)n3)nc2)o1 9.00

Follow-up item: O=C(NO)c1cnc(NC2(c3ccccc3)CCC(F)(F)CC2)nc1 8.40

Follow-up item: Fc1cc(-c2nnc(C(F)F)o2)cc(F)c1Cn1nnc(-c2ccccn2)n1 8.20

Follow-up item: COc1ccccc1-c1nnn(Cc2ccc(-c3nnc(C(F)F)o3)cn2)n1 8.80

Follow-up item: FC(F)c1nnc(-c2cnc(NC3(c4ccccc4)CCC(F)(F)CC3)nc2)o1 8.40

Follow-up item: FC(F)c1nnc(-c2ccc(Cn3nnc(-c4ccc(Cl)cc4)n3)nc2)o1 8.70

Follow-up item: FC(F)c1nnc(-c2ccc(Cn3nnc(-c4cccnc4)n3)nc2)o1 8.90
